src = PubChem BioAssay (NCI)

# Test system: MDA-MB-231 breast
# experimental_details: NCI tumour cell line growth inhibition, 48 h
readout_kind: GI50

molecular_string=Cc1cc(C)cc(Nc2nccc(-c3c(-c4ccc(F)cc4)ncn3C3CCNCC3)n2)c1 observed_value="1.5 µM"
molecular_string=CCOC(=O)Nc1nc2c(F)c(F)c(F)cc2s1 observed_value="36.2 µM"
molecular_string=CCN(CC)c1ccc(/C=C/C(=O)c2cccc(NS(C)(=O)=O)c2)cc1 observed_value="9.7 µM"
molecular_string=Cc1cc2nc3ccc(N=Nc4ccc(N(C)C)cc4)cc3n(-c3ccccc3)c-2cc1=N observed_value="0.074 µM"
molecular_string=Cn1cc(-c2csc(-c3cn(CCN4CCOCC4)c4ccc(F)cc34)n2)c2cccnc21 observed_value="2.51 µM"
molecular_string=COc1ccc(N2CCN(CC(=O)N3CCN(c4nnc(-c5ccccc5)c(-c5ccccc5)n4)CC3)CC2)cc1 observed_value="65.3 µM"
molecular_string=CC(C)[C@@H](C(=O)O[C@@H]1/C=C/C(=O)O[C@@H](C)CCC/C=C/[C@@H]2C[C@H](O)C[C@H]21)[N+](C)(C)C observed_value="> 100 µM"
molecular_string=NCCCn1c2c(c3ccc([N+](=O)[O-])cc3c1=O)C(=O)c1cc3c(cc1-2)OCO3 observed_value="0.44 µM"
molecular_string=Cc1cc(-c2ccccc2)c(C)n1Cc1ccc(Cl)cc1 observed_value="6.17 µM"
